The following compounds are listed with their measured EC50 values.
# Test system: HIV
# ASSAY PROCEDURE: Anti-viral Assay (method of Pauwels et al.)
# Type: cell-based
# TEST CONTEXT: Human immunodeficiency virus 1

- COMPOUND: "Cc1ccc(CC(=O)Nc2ccc(S(N)(=O)=O)cc2Cl)c(F)c1Oc1cc(Cl)cc(C#N)c1 [Compound I-83]"
  EC50: "0.9 nM"
- COMPOUND: "N#Cc1cc(Oc2c(Br)ccc(CC(=O)Nc3ccc(S(N)(=O)=O)cc3Cl)c2F)cc(C(F)F)c1 [Compound I-165]"
  EC50: "0.4 nM"
- COMPOUND: "CCc1ccc(CC(=O)Nc2ccc(S(N)(=O)=O)cc2Cl)c(F)c1Oc1cc(C#N)cc(C(F)F)c1 [Compound I-179]"
  EC50: "0.4 nM"
- COMPOUND: "N#Cc1cc(Cl)cc(Oc2c(Br)ccc(CC(=O)Nc3ccc(S(N)(=O)=O)cc3Cl)c2F)c1 [Compound I-109]"
  EC50: "1.3 nM"
- COMPOUND: "CCc1ccc(CC(=O)Nc2ccc(S(N)(=O)=O)cc2Cl)cc1Oc1cc(C#N)cc(C(F)F)c1 [Compound I-140]"
  EC50: "0.4 nM"
- COMPOUND: "Cc1cc(S(N)(=O)=O)ccc1NC(=O)Cc1ccc(Br)c(Oc2cc(C#N)cc(C(F)F)c2)c1F [Compound I-169]"
  EC50: "0.4 nM"
- COMPOUND: "Cc1ccc(CC(=O)Nc2ccc(S(N)(=O)=O)cc2Cl)c(F)c1Oc1cc(C#N)cc(C(F)F)c1 [Compound I-84]"
  EC50: "0.4 nM"

---

# SYSTEM TESTED: HIV-1 RT (Human immunodeficiency virus type 1 group M subtype B, UniProt P03366)
# ASSAY PROCEDURE: HIV Reverse Transcriptase Assay: Inhibitor IC50 Determination
# Format: biochemical
# TEST CONTEXT: purified recombinant enzyme, poly(rA)/oligo(dT)16 template-primer, 37° C. 30 min; read-out: RT inhibition
pIC50: −log10 of the molar value.
The following compounds are listed with their measured pIC50 values.

- COMPOUND: "Cc1cc(S(N)(=O)=O)ccc1NC(=O)Cc1ccc(Br)c(Oc2cc(C#N)cc(C(F)F)c2)c1F [Compound I-169]"
  SYSTEM TESTED: "HIV-1 RT (Human immunodeficiency virus type 1 group M subtype B, UniProt P03366)"
  pIC50: 7.57
- COMPOUND: "N#Cc1cc(Oc2c(Br)ccc(CC(=O)Nc3ccc(S(N)(=O)=O)cc3Cl)c2F)cc(C(F)F)c1 [Compound I-165]"
  SYSTEM TESTED: "HIV-1 RT (Human immunodeficiency virus type 1 group M subtype B, UniProt P03366)"
  pIC50: 7.68
- COMPOUND: "CCc1ccc(CC(=O)Nc2ccc(S(N)(=O)=O)cc2Cl)c(F)c1Oc1cc(C#N)cc(C(F)F)c1 [Compound I-179]"
  SYSTEM TESTED: "HIV-1 RT (Human immunodeficiency virus type 1 group M subtype B, UniProt P03366)"
  pIC50: 8.13
- COMPOUND: "Cc1ccc(CC(=O)Nc2ccc(S(N)(=O)=O)cc2Cl)c(F)c1Oc1cc(C#N)cc(C(F)F)c1 [Compound I-84]"
  SYSTEM TESTED: "HIV-1 RT (Human immunodeficiency virus type 1 group M subtype B, UniProt P03366)"
  pIC50: 7.85
